Expression Normalization to mAb 65C12: recorded values
Biological target: T1, human ASGR-1 mutant construct H203 (human, UniProt P07306 1-291)
T1 construct: Arg/Glu scanning: non-arginine residues were changed to arginine; Transiently expressed on CHO-S cells
T1 sequence: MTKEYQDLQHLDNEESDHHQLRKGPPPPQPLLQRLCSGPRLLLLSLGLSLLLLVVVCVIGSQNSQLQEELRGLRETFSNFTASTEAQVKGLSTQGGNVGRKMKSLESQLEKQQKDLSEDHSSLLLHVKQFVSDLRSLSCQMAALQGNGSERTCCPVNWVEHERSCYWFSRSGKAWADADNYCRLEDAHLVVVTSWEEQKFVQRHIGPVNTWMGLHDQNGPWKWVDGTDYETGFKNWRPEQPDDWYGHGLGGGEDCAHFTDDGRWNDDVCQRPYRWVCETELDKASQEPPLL
Experiment: FACS ratio: 65C12 geomean / this mAb geomean

Binder: 173C11 (antibody, V domains shown, mAb) VH: QVQLVESGGGVVQPGRSLRLSCAASGFTFSSYGIHWVRQAPGKGLEWVALIFYDGSNKYYADSVKGRFTISRDNSKNTLYLHMSSLRAEDTAVYYCARRYSSSWSGGMDVWGQGTTVTVSS VL: DIVMTQTPLSLSVTPGQPASISCKSSQSLLHSEGKTYLYWYLQKPGQPPQLLIYEVSHRFSGVPDRFSGSGSGTDFTLKISRVEAEDVGVYYCMQSIQLLTFGGGTKVEIK
Value: 1.86

# context switch: different binder, same Expression Normalization to mAb 65C12
// Expression Normalization to mAb 65C12 lookup, key: 213B3 (antibody, V domains shown, mAb) VH: QVQLVESGGGVVQPGRSLRLSCAASGFTFSSYGMHWVRQAPGKGLEWVAVIWYDGSNKNYADSVKGRFTISRDNSKNTLYLQMNSLRAEDTAVYYCARDRTVGYDGFDIWGQGTMVTVSS VL: DIQMTQSPSSLSASVGDRVTITCRASQGIGKYLAWFQQKPGKAPKSLISAASSVLSGVPSKFSGSGSGTDFTLTISSLQPEDFATYYCQKYDTYPFTFGPGTKVDIK
2.01
